Values compiled from PubChem BioAssay (NCATS).

Tested on: MKL-2
ASSAY EXPLANATION: qHTS assay to identify novel small-molecules to repurpose for Merkel cell carcinoma treatment (AID 1296009); note: nearly all actives have a fitted effect of over 60% in size
CONDITIONS: MCC and control cell lines, CellTiter-Glo viability, 72 h; series mostly up to 46 µM
Inconclusive results are not listed. Calls of active or inactive are those of the source. Calls come from the whole dose curve; as a rule, active = well fitted inhibition curve with a large enough effect; inconclusive = small, poorly fitted or top-dose-only effect; inactive = flat fitted curve, though single readings scatter.
Hi! Could you answer with just one of these? 1 (yes) for active, 0 (no) for inactive

How did this test come out for COC1CCC(N(C(=O)C2CCC(C)CC2)c2cc(C3=CCCCC3)sc2C(=O)O)CC1 (configuration not stated) ? 0 (no)

Same thing, different molecule: Cc1[nH]c(C=C2C(=O)Nc3ccc(S(=O)(=O)Cc4c(Cl)cccc4Cl)cc32)c(C)c1C(=O)N1CCC[C@H]1CN1CCCC1 1 (yes)

Same thing, different molecule: C[C@@H]1CCN(C(=O)CC#N)C[C@H]1N(C)c1ncnc2[nH]ccc12 0 (no)

Same thing, different molecule: C[C@@H](O)[C@H]1C(=O)N2C(C(=O)O)=C(S[C@@H]3CN[C@H](C(=O)N(C)C)C3)[C@H](C)[C@H]12 0 (no)

Same thing, different molecule: COc1ccc(-c2coc3cc(O)cc(O)c3c2=O)cc1 0 (no)

Same thing, different molecule: N[C@@]1(C(=O)O)CS(=O)(=O)[C@H]2[C@H](C(=O)O)[C@H]21 0 (no)

Same thing, different molecule: CC(=O)CCCCn1c(=O)c2c(ncn2C)n(C)c1=O 0 (no)

Same thing, different molecule: O=C(Nc1cccc(Br)c1)c1cccc(S(=O)(=O)N2CCCCCC2)c1 0 (no)

Same thing, different molecule: O=C1C[C@@H](c2ccc(O)cc2)Oc2cc(O)cc(O)c21 0 (no)

Same thing, different molecule: O=C1NC(=O)C(=Cc2ccc(-c3ccc(F)cc3)o2)S1 0 (no)

Same thing, different molecule: Clc1ccc(C(c2ccc(Cl)cc2)n2cc[n+](CC(OCc3ccc(Cl)cc3Cl)c3ccc(Cl)cc3Cl)c2)cc1 (configuration not stated) 1 (yes)

Same thing, different molecule: COc1cc(O)c2c(c1)C(=O)c1cc(C)cc(O)c1C2=O 0 (no)

----------
ASSAY EXPLANATION: Quantitative High-Throughput drug screen in 47 multiple myeloma cell lines against the NCATS MIPE library collection: Karpas620_DSMZ cell viability assay (AID 1918959); note: nearly all actives have a fitted effect of over 30% in size
CONDITIONS: Karpas620 myeloma viability, CellTiter-Glo ATP luminescence, 48 h; series mostly up to 45.8 µM
Source text: PI: Beverly A. Mock Ph.D. Laboratory of Cancer Biology and Genetics, Center for Cancer Research, National Cancer Institute, National Institute of Health, Bethesda, Maryland […] 5; Detector; 425V; Luminescence; Viewlux PerkinElmer. […] 1. […] Briefly, the corresponding myeloma cell lines were screened in 1,536-well plates with 500 cells, 5-uL per well for inhibition of cell viability (assessed by measuring ATP levels with CellTiterGlo). […]
Records with an inconclusive call do not appear. Calls of active or inactive are those of the source. Calls come from the whole dose curve; as a rule, active = well fitted cell-killing curve with a large enough effect; inconclusive = small, poorly fitted or top-dose-only effect, or effect the other way; inactive = no such curve, though single readings can be large or run the other way.
Hi! Could you answer with just one of these? 1 (yes) for active, 0 (no) for inactive

How did this test come out for Cc1ccc(C(C)(O)c2nc3ccccc3s2)c(C)c1 (configuration not stated) ? 0 (no)

Same thing, different compound: CCCCCCCCCCCC1=C(O)C(=O)C=C(O)C1=O 1 (yes)

Same thing, different compound: CC=CCC=CCCC(=O)[C@H]1O[C@@H]1C(N)=O 1 (yes)

Same thing, different compound: O=C(Nc1cccc(Br)c1)c1cccc(S(=O)(=O)N2CCCCCC2)c1 1 (yes)

Same thing, different compound: CN(C)CCC=C1c2ccccc2COc2ccc(CC(=O)O)cc21 0 (no)

Same thing, different compound: CC(C)(C)NC(=O)Nc1cccc(Nc2ncc(F)c(NC(C)(C)CO)n2)c1 0 (no)

Same thing, different compound: Cc1c(NC(=O)c2ccc(C(C)(C)C)cc2)cccc1-c1cn(C)c(=O)c(Nc2ccc(C(=O)N3CCOCC3)cc2)n1 1 (yes)

Same thing, different compound: COC1CCC(N(C(=O)C2CCC(C)CC2)c2cc(C3=CCCCC3)sc2C(=O)O)CC1 (configuration not stated) 0 (no)

Same thing, different compound: Cc1nc(N)sc1-c1ccnc(Nc2ccc(N3CCOCC3)cc2)n1 1 (yes)

Same thing, different compound: COc1cc2ncnc(Nc3ccc(F)c(Cl)c3)c2cc1OCCCN1CCOCC1 1 (yes)

Same thing, different compound: OC[C@H]1O[C@@H](n2cnc3c2NC=NC[C@@H]3O)C[C@H]1O 1 (yes)

Same thing, different compound: CC(C)(C(=O)NCC(F)(F)C(F)(F)F)C(=O)N[C@@H]1C(=O)Nc2ccccc2-c2ccccc21 1 (yes)

Same thing, different compound: O=C(O)c1c(Cl)c(Cl)c(Cl)c(Cl)c1-c1c2cc(I)c(=O)c(I)c-2oc2c(I)c(O)c(I)cc12 1 (yes)

Same thing, different compound: O=C(N[C@@H](c1ccccc1)[C@@H]1CCCCN1)c1cccc(C(F)(F)F)c1Cl 0 (no)

Same thing, different compound: O=C1C[C@@H](c2ccc(O)cc2)Oc2cc(O)cc(O)c21 0 (no)

Same thing, different compound: NS(=O)(=O)c1cccc2c1C(=O)c1cccc(O)c1C2=O 1 (yes)

Same thing, different compound: COc1ccc2c(Oc3ccc(NC(=O)c4c(C)n(CC(C)(C)O)n(-c5ccccc5)c4=O)nc3)ccnc2c1 0 (no)

Same thing, different compound: NC1=N[C@@]2(c3cc(NC(=O)c4ccc(F)cn4)ccc3F)COC[C@@H]2CS1 1 (yes)

Same thing, different compound: COc1cc2c(cc1OC)CN(CCc1ccc(NC(=O)c3cc(OC)c(OC)cc3NC(=O)c3cnc4ccccc4c3)cc1)CC2 0 (no)

Same thing, different compound: CC=CC(=O)N(CC)c1ccccc1C 0 (no)

Same thing, different compound: COc1ccc(-n2c(C)c([N+](=O)[O-])c3ccc(O)cc32)cc1 0 (no)

Same thing, different compound: CC#CCn1c(N2CCC[C@@H](N)C2)nc2c1c(=O)n(Cc1nc(C)c3ccccc3n1)c(=O)n2C 0 (no)

Same thing, different compound: COc1ccc2c(Oc3ccc(NC(=O)c4c(C)n(CC(C)(C)O)n(-c5ccccc5)c4=O)cc3F)ccnc2c1 1 (yes)

Same thing, different compound: CCOC(=O)O[C@]1(C(=O)OCCl)CC[C@@H]2[C@H]3CCC4=CC(=O)C=C[C@]4(C)[C@@H]3[C@@H](O)C[C@@]21C 0 (no)

Same thing, different compound: c1ccc2c(Cc3c[nH]c4ccccc34)c[nH]c2c1 1 (yes)

Same thing, different compound: C[C@]12CC[C@@H]3c4ccc(O)cc4C[C@@H](CCCCCCCCCS(=O)CCCC(F)(F)C(F)(F)F)[C@H]3[C@H]1CC[C@H]2O (some centres not stated) 0 (no)

Same thing, different compound: N#CC1(c2ccc(NC(=O)c3cccnc3NCc3ccncc3)cc2)CCCC1 0 (no)

Same thing, different compound: CC(C(=O)O)c1ccc(-c2ccccc2)c(F)c1 (configuration not stated) 0 (no)

Same thing, different compound: c1cc(-c2sc(-c3ccncc3)c(-c3ccncc3)c2-c2ccncc2)ccn1 0 (no)

Same thing, different compound: COc1ccc2cc(-c3nc(-c4ccc(S(C)=O)cc4)[nH]c3-c3ccncc3)ccc2c1 (configuration not stated) 1 (yes)

Same thing, different compound: CN(C)c1cc(NC(=O)CNC(C)(C)C)c(O)c2c1C[C@@H]1C[C@H]3[C@H](N(C)C)C(=O)C(C(N)=O)=C(O)[C@@]3(O)C(=O)C1=C2O 0 (no)

Same thing, different compound: C[C@H](NC(=O)c1sccc1OCc1ccc(Cl)cc1)c1ccccc1 0 (no)
